Measurement notes: Triglycerides in rodent models
Format: in vivo
Quantity measured: Triglyccerides (Rodent Models)

| Compound | Quantity measured | Readout value |
| --- | --- | --- |
| Cc1cc2c(cc1C1(c3ccc(C(=O)O)cn3)CC1)C(C)(C)CCC2(C)C [drawing 95, reference compound] | Triglyccerides (Rodent Models) | Elevated |
| C=C(c1ccc(C(=O)O)cc1)c1cc2c(cc1C)C(C)(C)CCC2(C)C | Triglyccerides (Rodent Models) | Elevated |
| CC(/C=C/[C@@H]1C[C@]1(C)c1cc2c(cc1C)C(C)(C)CCC2(C)C)=C\C(=O)O [reference compound] | Triglyccerides (Rodent Models) | Elevated |
